Property: CC50 at 5 days; scope: individual compounds
assay: Cytotoxicity Determination (CCK-8, without addition of virus); format: cell-based; conditions: human, 50% cytotoxicity concentration (CC50)

[[record]]
compound = "COc1cc(C(=O)NCC(O)(c2cc(C(C)(N)CF)cc(-c3ccc(F)c(Cl)c3)n2)C(F)(F)F)ccc1OCCO (stereo not drawn)"
reported = "10 to 100 µM"

[[record]]
compound = "COCC(C)(NC(C)=O)c1cc(-c2ccc(F)c(Cl)c2)nc(C(O)(CNC(=O)c2ccc(OC3CC3)c(OC)c2)C(F)(F)F)c1 (stereo not drawn)"
reported = "10 to 100 µM"


input: Quick check: CC50 at 5 days of COc1cc(C(=O)NCC(C)(O)c2csc(-c3ccc(F)c(Cl)c3)n2)ccc1OCCO (stereo not drawn) ?
output: > 100 µM

----------
assay: Cytotoxicity Determination (CCK-8, without addition of virus); type: cell-based; details: human, 50% cytotoxicity concentration (CC50)
Property: CC50 at 5 days; scope: individual compounds

Reference set, count: 3
[[record]]
compound = "COc1cc(C(=O)NCC(O)(c2cc3c(c(-c4ccc(F)c(F)c4)n2)OCC3(C)N)C(F)(F)F)ccc1OCCO (stereo not drawn)"
reported = "10 to 100 µM"

[[record]]
compound = "CNCC(O)(CNC(=O)c1ccc(OCCO)c(OC)c1)c1ccc(OC)c(-c2ccc(F)c(Cl)c2)n1 (stereo not drawn)"
reported = "> 100 µM"

[[record]]
compound = "COc1cc(C(=O)NC[C@](O)(c2cc3c(c(-c4ccc(F)cc4)n2)OCC3(N)CO)C(F)(F)F)ccc1OC1CC1 (stereo partly drawn)"
reported = "10 to 100 µM"


Here is another compound to look at.
input: Quick check: CC50 at 5 days of COC(=O)CNC(C)(C)c1cc(-c2ccc(F)c(Cl)c2)nc(C(O)(CNC(=O)c2ccc(OC3CC3)c(OC)c2)C(F)(F)F)c1 (stereo not drawn) ?
output: 10 to 100 µM

----------
Property: pEC50; scope: individual compounds
system: Respiratory Syncytial Virus (RSV) long strain; experiment: microbe, parasite or virus in culture; assay type: cell-based; details: human respiratory syncytial virus, HEp-2, 120 h, read-out: 50% effective concentration (EC50), HEp-2 cells infected with RSV long strain, 5 days, CCK-8 readout; Tables A and B list compounds by EC50 band
pEC50: −log10 of the molar value.

input: Quick check: pEC50 of COc1cc(C(=O)NCC(O)(c2cc(C(N)CO)cc(-c3ccc(F)c(Cl)c3)n2)C(F)(F)F)ccc1OC1CC1 (centres unmarked) [Compound 528] ?
output: > 6.00

input: Quick check: pEC50 of COc1cc(C(=O)NCC(O)(c2cc(C(C)(C)N)cc(-c3ccc(F)c(Cl)c3)n2)C(F)(F)F)ccc1OC1CC1(F)F (centres unmarked) [Compound 324] ?
output: > 6.00

input: Quick check: pEC50 of COc1cc(C(=O)NCC(O)(c2cc(C(C)(C)N)c(OC)c(-c3ccc(F)cc3)n2)C(F)(F)F)ccc1OC1CC1 (centres unmarked) [Compound 594] ?
output: > 6.00

input: Quick check: pEC50 of COc1cc(C(=O)NCC(O)(c2ccc(OC)c(-c3ccc(F)c(Cl)c3)n2)C(F)(F)F)ccc1OCC(C)(F)F (centres unmarked) [Compound 234] ?
output: > 6.00

input: Quick check: pEC50 of COc1cc(C(=O)NCC(O)(CC2CNC2)c2ccc(OC)c(-c3ccc(F)c(Cl)c3)n2)ccc1OC1CC1 (centres unmarked) [Compound 461] ?
output: > 6.00

----------
Property: CC50 at 5 days; scope: individual compounds
assay: Cytotoxicity Determination (CCK-8, without addition of virus); type: cell-based; details: human, 50% cytotoxicity concentration (CC50)

Reference set, count: 6
[[record]]
compound = "COc1cc(C(=O)NCC(=O)c2cc3c(c(-c4ccc(F)c(Cl)c4)n2)OCC3(C)C)cc2c(C)ccnc12"
reported = "> 100 µM"

[[record]]
compound = "COc1cc(C(=O)NCC(O)(c2cc([C@@]3(C)CCN3)cc(-c3ccc(F)c(Cl)c3)n2)C(F)(F)F)ccc1OC1CC1 (some centres unmarked)"
reported = "10 to 100 µM"

[[record]]
compound = "COc1cc(C(=O)NCC(O)(c2ccc(OC)c(-c3ccc(F)c(Cl)c3)n2)C2CC2)ccc1OCCF (centres unmarked)"
reported = "> 100 µM"

[[record]]
compound = "COc1cc(C(=O)NCC(O)(c2cc(C(C)(C)NCC(=O)O)cc(-c3ccc(F)c(Cl)c3)n2)C(F)(F)F)ccc1OC1CC1 (centres unmarked)"
reported = "10 to 100 µM"

[[record]]
compound = "COc1cc(C(=O)NC[C@@](O)(c2cc(C(C)(C)N)cc(-c3ccc(F)c(Cl)c3)n2)C(F)(F)F)ccc1OC[C@@H](C)O"
reported = "10 to 100 µM"

[[record]]
compound = "COc1cc(C(=O)NCC(O)(c2cc3c(c(-c4ccc(F)cc4)n2)OCC3(C)N)C(F)(F)F)ccc1OCCO (centres unmarked)"
reported = "10 to 100 µM"


input: Quick check: CC50 at 5 days of COc1cc(C(=O)NCC(O)(c2cc(C(C)(C)NCCF)cc(-c3ccc(F)c(Cl)c3)n2)C(F)(F)F)ccc1OC1CC1 (centres unmarked) ?
output: 10 to 100 µM

input: Quick check: CC50 at 5 days of COc1cc(C(=O)NCC(O)(c2cc3c(c(-c4ccc(F)c(Cl)c4)n2)OCCC3)C2CC2)ccc1OCCO (centres unmarked) ?
output: 10 to 100 µM

----------
Property: pIC50; scope: individual compounds
target: recombinant RSV complex (Human respiratory syncytial virus A); test: RSV Polymerase Inhibition Assay; assay type: biochemical
Sequence (P28887 whole entry): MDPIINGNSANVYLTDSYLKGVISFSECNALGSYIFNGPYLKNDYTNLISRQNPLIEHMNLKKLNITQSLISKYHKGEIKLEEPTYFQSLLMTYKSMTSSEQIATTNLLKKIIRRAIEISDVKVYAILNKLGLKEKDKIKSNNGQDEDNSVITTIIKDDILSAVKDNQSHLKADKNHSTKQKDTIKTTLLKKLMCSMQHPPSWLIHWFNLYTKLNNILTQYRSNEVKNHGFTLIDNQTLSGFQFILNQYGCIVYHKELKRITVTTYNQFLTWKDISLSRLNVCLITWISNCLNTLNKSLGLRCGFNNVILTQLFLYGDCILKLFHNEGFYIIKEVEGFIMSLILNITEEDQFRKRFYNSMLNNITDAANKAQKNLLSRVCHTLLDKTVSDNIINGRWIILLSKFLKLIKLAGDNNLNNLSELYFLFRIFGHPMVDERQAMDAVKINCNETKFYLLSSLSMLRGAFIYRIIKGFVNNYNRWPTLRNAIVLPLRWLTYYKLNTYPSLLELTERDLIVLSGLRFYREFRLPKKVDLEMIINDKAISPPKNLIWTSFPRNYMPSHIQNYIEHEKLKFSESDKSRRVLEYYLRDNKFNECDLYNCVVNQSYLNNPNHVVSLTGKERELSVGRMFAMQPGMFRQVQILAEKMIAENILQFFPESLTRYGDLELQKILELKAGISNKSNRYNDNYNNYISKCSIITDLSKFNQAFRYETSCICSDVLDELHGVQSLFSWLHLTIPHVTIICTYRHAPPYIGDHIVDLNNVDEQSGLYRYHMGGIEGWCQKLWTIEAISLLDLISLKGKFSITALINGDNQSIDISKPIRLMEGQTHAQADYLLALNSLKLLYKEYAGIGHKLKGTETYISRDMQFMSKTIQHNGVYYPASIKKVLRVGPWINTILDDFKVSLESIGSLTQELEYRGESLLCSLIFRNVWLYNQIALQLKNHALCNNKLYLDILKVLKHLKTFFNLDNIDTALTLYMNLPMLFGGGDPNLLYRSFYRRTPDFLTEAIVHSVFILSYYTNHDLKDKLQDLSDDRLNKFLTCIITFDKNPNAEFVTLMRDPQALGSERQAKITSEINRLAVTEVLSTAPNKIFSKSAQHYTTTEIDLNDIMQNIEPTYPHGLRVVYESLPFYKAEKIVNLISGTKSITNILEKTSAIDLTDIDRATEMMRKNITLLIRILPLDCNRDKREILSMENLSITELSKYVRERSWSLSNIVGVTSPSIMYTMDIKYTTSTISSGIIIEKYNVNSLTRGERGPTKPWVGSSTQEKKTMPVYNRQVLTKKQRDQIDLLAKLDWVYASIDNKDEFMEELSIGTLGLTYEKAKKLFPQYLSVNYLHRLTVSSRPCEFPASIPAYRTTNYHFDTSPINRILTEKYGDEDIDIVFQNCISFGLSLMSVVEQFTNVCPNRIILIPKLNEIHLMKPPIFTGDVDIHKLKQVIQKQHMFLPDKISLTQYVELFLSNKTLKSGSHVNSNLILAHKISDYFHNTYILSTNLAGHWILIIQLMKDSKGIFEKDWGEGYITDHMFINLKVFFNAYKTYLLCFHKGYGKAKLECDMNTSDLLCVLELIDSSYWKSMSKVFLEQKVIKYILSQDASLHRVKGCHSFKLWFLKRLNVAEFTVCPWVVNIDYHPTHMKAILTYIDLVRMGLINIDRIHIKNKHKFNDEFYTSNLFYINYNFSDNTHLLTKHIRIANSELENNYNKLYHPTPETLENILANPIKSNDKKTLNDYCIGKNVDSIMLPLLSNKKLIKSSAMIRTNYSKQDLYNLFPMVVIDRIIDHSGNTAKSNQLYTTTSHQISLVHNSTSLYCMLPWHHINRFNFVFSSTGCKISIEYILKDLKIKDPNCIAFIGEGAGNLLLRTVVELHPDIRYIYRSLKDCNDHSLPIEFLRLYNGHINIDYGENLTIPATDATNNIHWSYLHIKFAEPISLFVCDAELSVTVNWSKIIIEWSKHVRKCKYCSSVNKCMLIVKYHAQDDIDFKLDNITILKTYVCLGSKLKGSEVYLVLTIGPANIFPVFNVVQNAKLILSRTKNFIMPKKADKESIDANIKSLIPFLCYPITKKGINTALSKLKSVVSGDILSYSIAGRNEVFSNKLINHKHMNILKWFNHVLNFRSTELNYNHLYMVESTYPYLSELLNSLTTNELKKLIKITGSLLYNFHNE
Sequence (P03421 whole entry, further chain): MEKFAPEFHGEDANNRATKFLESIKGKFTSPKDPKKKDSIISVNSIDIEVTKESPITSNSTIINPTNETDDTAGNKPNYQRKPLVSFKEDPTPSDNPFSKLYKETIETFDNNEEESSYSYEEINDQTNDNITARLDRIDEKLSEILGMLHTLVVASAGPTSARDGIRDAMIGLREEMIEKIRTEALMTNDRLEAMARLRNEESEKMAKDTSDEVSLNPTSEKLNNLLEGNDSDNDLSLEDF
pIC50: −log10 of the molar value.

Reference set, count: 5
[[record]]
compound = "COc1cc(C(=O)NCC(O)(c2cc3c(c(-c4ccc(F)cc4)n2)OCC3(N)C(C)C)C(F)(F)F)ccc1OCCO (centres unmarked) [Compound 565]"
assay_system = "recombinant RSV complex (Human respiratory syncytial virus A)"
assay_endpoint = "pIC50"
reported = "> 6.00"

[[record]]
compound = "COc1cc(C(=O)NCC(C)(O)c2ccc(OC)c(-c3c[nH]c4c(F)cccc34)n2)ccc1OCC(N)=O (centres unmarked) [Compound 419]"
assay_system = "recombinant RSV complex (Human respiratory syncytial virus A)"
assay_endpoint = "pIC50"
reported = "> 6.00"

[[record]]
compound = "Cc1ncc(C(=O)NCC(O)(c2cc(C(C)(C)N)cc(-c3ccc(F)cc3)n2)C(F)(F)F)[nH]1 (centres unmarked) [Compound 609]"
assay_system = "recombinant RSV complex (Human respiratory syncytial virus A)"
assay_endpoint = "pIC50"
reported = "> 5.00"

[[record]]
compound = "COc1cc(C(=O)NCC(O)(c2cc3c(c(-c4ccc(F)c(Cl)c4)n2)NCC3(C)C)C(F)(F)F)ccc1OC1CC1 (centres unmarked) [Compound 335]"
assay_system = "recombinant RSV complex (Human respiratory syncytial virus A)"
assay_endpoint = "pIC50"
reported = "> 6.00"

[[record]]
compound = "COc1cc(C(=O)NCC(O)(c2cc3c(c(-c4ccc(F)c(Cl)c4)n2)OCC3(C)C)C(F)(F)F)ccc1CN1CCNC1=O (centres unmarked) [Compound 216]"
assay_system = "recombinant RSV complex (Human respiratory syncytial virus A)"
assay_endpoint = "pIC50"
reported = "> 5.00"


input: Quick check: pIC50 of COc1cc(C(=O)NCC(C)(O)c2cc(C(C)(C)C)cc(-c3ccc(F)c(Cl)c3)n2)ccc1OCCO (centres unmarked) [Compound 467] ?
output: > 6.00

input: Quick check: pIC50 of COc1cc(C(=O)NCC(O)(c2cc3c(c(-c4ccc(F)cc4)n2)OCC3(C)CN)C(F)(F)F)ccc1OC1CC1 (centres unmarked) [Compound 538] ?
output: > 6.00

input: Quick check: pIC50 of COc1cc(C(=O)NCC(O)(c2cc(C(C)(C)NC3CCC3)cc(-c3ccc(F)c(Cl)c3)n2)C(F)(F)F)ccc1OC1CC1 (centres unmarked) [Compound 575] ?
output: > 6.00

----------
test: Cytotoxicity Determination (CCK-8, without addition of virus); format: cell-based; settings: human, 50% cytotoxicity concentration (CC50)
Property: CC50 at 5 days; scope: individual compounds

Reference set, count: 3
[[record]]
compound = "COc1cc(C(=O)NCC(O)(Cn2cncn2)c2ccc(OC)c(-c3ccc(F)c(Cl)c3)n2)ccc1OCCO (stereo not shown)"
reported = "> 100 µM"

[[record]]
compound = "COc1cc(C(=O)NCC(O)(c2cc3c(c(-c4ccc(F)cc4)n2)OCC3(C)N)C(F)(F)F)cc2cccnc12 (stereo not shown)"
reported = "10 to 100 µM"

[[record]]
compound = "COc1cc(C(=O)NCC(O)(c2cc(C(C)(C)NC(C)=O)cc(-c3ccc(F)cc3)n2)C(F)(F)F)ccc1OC[C@@H](C)O (stereo partly shown)"
reported = "> 100 µM"


Here is another compound to look at.
input: Quick check: CC50 at 5 days of COc1cc(C(=O)NCC(O)(c2cc3c(c(-c4ccc(F)c(Cl)c4)n2)OCC3N)C(F)(F)F)ccc1OC1CC1 (stereo not shown) ?
output: 10 to 100 µM
